B1: glmS ribozyme (parent)
chain: AUAAAAGCGCCAGAACUACAGAAAUGUAGUUGACGAGGAGGAGGUUUAUCGAAUUUUCGGCGGAUGCCUCCAAA

- Variants of: B1
- assay_comment: self-cleavage kobs at 640 uM GlcN6P; higher = faster cleavage; RNA array
- experimental_parameters: with glucosamine-6-phosphate
This sample holds only a part of the variants without activity.
Below, each of the variants is paired with its reported self-cleavage kobs at 640 uM GlcN6P value.

## Input Could you share which self-cleavage kobs at 640 uM GlcN6P value was measured for AUAAAAGCGCCAGUACUACAGAAAUGUAGUUGACAAGGACGAGGUUUAUCGAAUUUUCGGCGGAUGCCUCCAAA [A14U G35A G40C] ?
## Output < 1e-05 s⁻¹

## Input Please give the result for AUAAAAGCGCCAGAAUUACAGAAAUGUAGUUGACGAGGAGGAGGUUUAUCAAAUUUUCGGCGAAUACCUCCAAA [C16U G51A G63A G66A] too.
## Output < 1e-05 s⁻¹

## Input Lookup AUAAACGCGCCAGAACUACAGAAAUGUAGUUGACGAGGAGGAGCUUUAUCGAAUUUUCGGCGGAUGCCUCCAAA [A6C G44C]
## Output < 1e-05 s⁻¹

## Input Likewise for AUAAAAGCGCCCGAACUACAGAAAUGUAGUUGACGAGGAGGAGGUUUAUCGAAUUUUCGGCGGAUGCCUGCAAA [A12C C70G] ?
## Output 0.000119 s⁻¹

## Input And what about the variant AUAAAAGCGCCAGAUCUACAGAAAUGUAGUUGACGAGGAGGAGGUUUAUCGAAUUUUCGGCGGAUGCCUCGAAA [A15U C71G] ?
## Output 9.25e-05 s⁻¹

## Input Also need AUAAAAGCGCCAGAACUACAGAAAUGUAGUUGACAAGGAGGAGGUUUAUCGAAUUCUCGGCGGUUGCCUCCAAA [G35A U56C A64U] , thanks.
## Output < 1e-05 s⁻¹

## Input Next variant up: AUAAAAGCGCCAGAACUACAGAAAUGUAGUUGACGAGGAGGAGGACGAUCGAAUUUUCGGCGGAUGCCUUCAAA [U45A U46C U47G C70U]
## Output 0.000175 s⁻¹
